All values here come from ChEMBL document CHEMBL1122169.

Readings of logP for the listed molecules
ASSAY_REMARKS: Partition coefficient (logP)
Format: physicochemical
STUDY_CONDITIONS: octanol/water
Reply briefly: the number, and no unit.

Answered cases to consult:
[[record]]
smiles = "O=[N+]([O-])c1ccc2[nH]cnc2c1"
reading = 1.64

[[record]]
smiles = "Cc1nc2c([N+](=O)[O-])cc(Cl)cc2[nH]1"
reading = 3.06

[[record]]
smiles = "Cc1cc(OCc2nc3ccccc3[nH]2)cc(C)c1Cl"
reading = 4.43


Measured logP of `Clc1ccc(Cc2nc3ccccc3[nH]2)c(Cl)c1` : 5.32

Measured logP of `c1ccc(-c2nc3ccccc3[nH]2)nc1` : 2.38

Measured logP of `Cc1cccc2[nH]cnc12` : 1.86

Measured logP of `Clc1cc(Cl)c2[nH]cnc2c1` : 3.26

----------
Readings of IC50 for the listed compounds
TARGET_OR_TEST_SYSTEM: Cytochrome P450 2B1 (Rattus norvegicus, UniProt P00176)
Sequence (P00176 whole entry): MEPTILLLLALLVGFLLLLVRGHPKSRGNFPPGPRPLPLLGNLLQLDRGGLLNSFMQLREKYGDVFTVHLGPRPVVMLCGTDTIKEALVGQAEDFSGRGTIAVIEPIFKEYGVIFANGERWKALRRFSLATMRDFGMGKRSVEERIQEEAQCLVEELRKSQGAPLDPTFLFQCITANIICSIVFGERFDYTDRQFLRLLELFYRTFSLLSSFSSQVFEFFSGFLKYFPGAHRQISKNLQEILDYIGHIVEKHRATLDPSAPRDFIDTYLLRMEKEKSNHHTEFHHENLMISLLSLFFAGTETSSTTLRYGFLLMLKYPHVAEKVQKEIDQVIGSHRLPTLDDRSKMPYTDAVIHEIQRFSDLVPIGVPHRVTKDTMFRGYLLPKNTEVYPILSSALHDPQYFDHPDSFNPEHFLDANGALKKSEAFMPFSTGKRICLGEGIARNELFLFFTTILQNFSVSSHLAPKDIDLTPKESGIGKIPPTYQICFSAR
ASSAY_REMARKS: Inhibitory potency to aminopyrine N-demethylase activity (P450) in hepatic microsomes from phenobarbitone-induced rats.
Type: ADME, Liver
STUDY_CONDITIONS: read-out: pI50 (converted)

Answered cases to consult:
[[record]]
smiles = "Brc1ccccc1OCc1nc2ccccc2[nH]1"
measurement_label = "IC50"
reading = "12 µM"

[[record]]
smiles = "Clc1cc2nc[nH]c2cc1Cl"
measurement_label = "IC50"
reading = "81.3 µM"

[[record]]
smiles = "CCOc1ccc2[nH]c(C)nc2c1"
measurement_label = "IC50"
reading = "56.2 µM"

[[record]]
smiles = "c1ccc(OCc2nc3ccccc3[nH]2)cc1"
measurement_label = "IC50"
reading = "69.2 µM"

[[record]]
smiles = "Clc1ccc(OCc2nc3ccccc3[nH]2)cc1"
measurement_label = "IC50"
reading = "25.1 µM"

[[record]]
smiles = "c1ccc2c(c1)c1c(c3ccccc32)=NCN=1"
measurement_label = "IC50"
reading = "30.2 µM"

[[record]]
smiles = "CCc1ccc(OCc2nc3ccccc3[nH]2)cc1"
measurement_label = "IC50"
reading = "67.6 µM"

[[record]]
smiles = "c1ccc(-c2nc3ccccc3[nH]2)nc1"
measurement_label = "IC50"
reading = "64.6 µM"

[[record]]
smiles = "c1ccc2[nH]c(C3CCCCC3)nc2c1"
measurement_label = "IC50"
reading = "91.2 µM"

[[record]]
smiles = "Clc1ccccc1OCc1nc2ccccc2[nH]1"
measurement_label = "IC50"
reading = "26.9 µM"


Measured IC50 of `Brc1ccc(OCc2nc3ccccc3[nH]2)cc1` : 21.9 µM

Measured IC50 of `Clc1cccc(Cc2nc3ccccc3[nH]2)c1` : 22.9 µM

Measured IC50 of `Cc1nc2c([N+](=O)[O-])cc(Cl)cc2[nH]1` : 100 µM

----------
ASSAY_REMARKS: Partition coefficient (logP)
Assay type: physicochemical
STUDY_CONDITIONS: octanol/water
MEASUREMENT_LABEL: logP
Reply briefly: the number, and no unit.

[[record]]
smiles = "c1ccc2c(c1)c1c(c3ccccc32)=NCN=1"
measurement_label = "logP"
reading = 4.06

[[record]]
smiles = "c1ccc(CCc2nc3ccccc3[nH]2)cc1"
measurement_label = "logP"
reading = 3.96


Now consider the entry below.
Measured logP of `CCCCc1nc2cc(C)c(C)cc2[nH]1` : 3.9

----------
ASSAY_REMARKS: Partition coefficient (logP)
Assay type: physicochemical
STUDY_CONDITIONS: octanol/water
I'd appreciate it if you marked entries Met when logP is lower than 3 and Not met when it is not.

# example entries with known answers
[[record]]
smiles = "Clc1ccc2[nH]cnc2c1"
category = "Met"

[[record]]
smiles = "Brc1cccc(Br)c1OCc1nc2ccccc2[nH]1"
category = "Not met"

[[record]]
smiles = "Clc1ccccc1OCc1nc2ccccc2[nH]1"
category = "Not met"


QUERY: is_below(logP, 3) for `CCCCCCCCCCCc1nc2ccccc2[nH]1` ?
RESULT: Not met

QUERY: is_below(logP, 3) for `CCCc1nc2cc(C)c(C)cc2[nH]1` ?
RESULT: Not met

----------
ASSAY_REMARKS: Partition coefficient (logP)
Assay type: physicochemical
STUDY_CONDITIONS: octanol/water
MEASUREMENT_LABEL: logP
Reply briefly: the number, and no unit.

[[record]]
smiles = "CC(C)Cc1nc2ccccc2[nH]1"
reading = 2.91

[[record]]
smiles = "Clc1ccc(OCc2nc3ccccc3[nH]2)cc1"
reading = 3.59

[[record]]
smiles = "CC(C)(C)c1nc2ccccc2[nH]1"
reading = 2.86

[[record]]
smiles = "Fc1ccc2[nH]cnc2c1"
reading = 2.03

[[record]]
smiles = "FC(F)(F)c1nc2ccccc2[nH]1"
reading = 2.39

[[record]]
smiles = "CCc1nc2cc(C)c(C)cc2[nH]1"
reading = 2.9

[[record]]
smiles = "c1ccc(CCCc2nc3ccccc3[nH]2)cc1"
reading = 4.46

[[record]]
smiles = "c1ccc(Cc2nc3ccccc3[nH]2)cc1"
reading = 3.46


Measured logP of `CC(=O)Nc1ccc2nc(C)[nH]c2c1` : 0.61
